# Test system: 521955-158-R2-J5-PDC complex spheroid growth, % test/control
# assay_details: Anticancer human tumor 521955-158-R2-J5-PDC patient-derived pancreatic carcinoma cell line growth inhibition [Asc]
# conditions_used: second compound 0.949 µM; first compound 0.0316 µM; active compounds read low
outcome_measure: viability, T/C (%)
Express the result in % but write the number alone.

A selection of reference data follows.
# compound, outcome_measure, u, reported_measurement
measured = [
    ("CCN1CCN(Cc2ccc(Nc3ncc(F)c(-c4cc(F)c5nc(C)n(C(C)C)c5c4)n3)nc2)CC1 + CCN1C(C(=O)NC23CCC(C(=O)O)(CC2)CC3)C(c2cccc(Cl)c2F)C2(C(=O)Nc3cc(Cl)ccc32)C12CCCCC2", "viability, T/C", "%", 107),
    ("C=C(F)C(=O)N1CCN(c2nc(OCC3CCCN3C)nc3c2CCN(c2cccc4cccc(Cl)c24)C3)CC1CC#N (centres undefined) + CCN1C(C(=O)NC23CCC(C(=O)O)(CC2)CC3)C(c2cccc(Cl)c2F)C2(C(=O)Nc3cc(Cl)ccc32)C12CCCCC2", "viability, T/C", "%", 130),
    ("COc1c(OCCCN2CCOCC2)ccc2c3n(c(=NC(=O)c4cnc(N)nc4)nc12)CCN3 + CCN1C(C(=O)NC23CCC(C(=O)O)(CC2)CC3)C(c2cccc(Cl)c2F)C2(C(=O)Nc3cc(Cl)ccc32)C12CCCCC2", "viability, T/C", "%", 40.5),
]

Next compound, please.
Exam item: Which viability, T/C value belongs to C#Cc1c(F)ccc2cc(O)cc(-c3ncc4c(N5CC6CCC(C5)N6)nc(OCC56CCCN5CC(F)C6)nc4c3F)c12 (centres undefined) + CCN1C(C(=O)NC23CCC(C(=O)O)(CC2)CC3)C(c2cccc(Cl)c2F)C2(C(=O)Nc3cc(Cl)ccc32)C12CCCCC2 ?
Marked response: 42.7

* * *

# Tested on: 521955-158-R2-J5-PDC complex spheroid growth, % test/control
# assay_details: Anticancer human tumor 521955-158-R2-J5-PDC cell line growth inhibition [Asc];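 note: spheroids exposed to agents for 7 days before readout; 100% = DMSO vehicle control viability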
# conditions_used: second compound 1 µM; first compound 3.16 µM; active compounds read low
Rule: measured viability, T/C below 60% gets y; anything equal to or greater than 60% gets n.

# molecule, group_label
data = [
    ("C=CC(=O)N1CCN(c2nc(=O)n(-c3c(C)ccnc3C(C)C)c3nc(-c4c(O)cccc4F)c(F)cc23)C(C)C1 (stereo unspecified) + Cc1c(S(C)(=O)=O)c(-c2cc(F)cc(N3CCN(c4ccc(NS(=O)(=O)c5ccc(NC(CCN6CCC(C(=O)OCCCP(=O)(O)O)CC6)CSc6ccccc6)c(S(=O)(=O)C(F)(F)F)c5)cc4)CC3)c2)c(-c2ccc(Cl)cc2)n1C(C)C", "n"),
]

In the following, a different molecule is considered.
Exam item: Please let me know if C=C(F)C(=O)N1CCN(c2nc(OCC3CCCN3C)nc3c2CCN(c2cccc4cccc(Cl)c24)C3)CC1CC#N (stereo unspecified) + CNC(C)C(=O)NC1CN(S(=O)(=O)c2cccc(S(=O)(=O)N3CCC4CCC(C(=O)NC(c5ccccc5)c5ccccc5)N4C(=O)C(NC(=O)C(C)NC)C3)c2)CCC2CCC(C(=O)NC(c3ccccc3)c3ccccc3)N2C1=O shows viability, T/C below 60%.
Marked response: n

* * *

# System: 521955-158-R2-J5-PDC complex spheroid growth, % test/control
# assay_details: Anticancer human tumor 521955-158-R2-J5-PDC cell line growth inhibition [Asc];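 note: spheroids exposed to agents for 7 days before readout; 100% = DMSO vehicle control viability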
# conditions_used: second compound 0.0316 µM; first compound 0.0316 µM; active compounds read low
# Source text: Multicellular complex tumor spheroid response to apoptosis pathway targeting inhibitors Alrizomadlin, Pelcitoclax, and Dasminapant in combination with a variety of drugs and investigational agents in selected tumor cell lines […] Compounds. […] If the clinical Cmax for an agent had not been determined, the highest concentration tested was 10 microM. […]
Output T for records whose viability, T/C is lower than 60%, F for records at or above 60%.

# compound, group_label
rows = [
    ("C=CC(=O)N1CCN(c2nc(=O)n(-c3c(C)ccnc3C(C)C)c3nc(-c4c(O)cccc4F)c(F)cc23)C(C)C1 (centres undefined) + CNC(C)C(=O)NC1CN(S(=O)(=O)c2cccc(S(=O)(=O)N3CCC4CCC(C(=O)NC(c5ccccc5)c5ccccc5)N4C(=O)C(NC(=O)C(C)NC)C3)c2)CCC2CCC(C(=O)NC(c3ccccc3)c3ccccc3)N2C1=O", "F"),
    ("O=C(c1cc(Cc2n[nH]c(=O)c3ccccc23)ccc1F)N1CCN(C(=O)C2CC2)CC1 + CNC(C)C(=O)NC1CN(S(=O)(=O)c2cccc(S(=O)(=O)N3CCC4CCC(C(=O)NC(c5ccccc5)c5ccccc5)N4C(=O)C(NC(=O)C(C)NC)C3)c2)CCC2CCC(C(=O)NC(c3ccccc3)c3ccccc3)N2C1=O", "F"),
    ("COc1c(OCCCN2CCOCC2)ccc2c3n(c(=NC(=O)c4cnc(N)nc4)nc12)CCN3 + CNC(C)C(=O)NC1CN(S(=O)(=O)c2cccc(S(=O)(=O)N3CCC4CCC(C(=O)NC(c5ccccc5)c5ccccc5)N4C(=O)C(NC(=O)C(C)NC)C3)c2)CCC2CCC(C(=O)NC(c3ccccc3)c3ccccc3)N2C1=O", "T"),
    ("C#Cc1c(F)ccc2cc(O)cc(-c3ncc4c(N5CC6CCC(C5)N6)nc(OCC56CCCN5CC(F)C6)nc4c3F)c12 (centres undefined) + CNC(C)C(=O)NC1CN(S(=O)(=O)c2cccc(S(=O)(=O)N3CCC4CCC(C(=O)NC(c5ccccc5)c5ccccc5)N4C(=O)C(NC(=O)C(C)NC)C3)c2)CCC2CCC(C(=O)NC(c3ccccc3)c3ccccc3)N2C1=O", "T"),
    ("O=C(c1ccc(F)c(F)c1Nc1ccc(I)cc1F)N1CC(O)([C@@H]2CCCCN2)C1 + CNC(C)C(=O)NC1CN(S(=O)(=O)c2cccc(S(=O)(=O)N3CCC4CCC(C(=O)NC(c5ccccc5)c5ccccc5)N4C(=O)C(NC(=O)C(C)NC)C3)c2)CCC2CCC(C(=O)NC(c3ccccc3)c3ccccc3)N2C1=O", "T"),
]

Exam item: Lab note: viability, T/C threshold 60%. Does this compound come in strictly under it? NC1CCC(NC2CC2c2ccccc2)CC1 (centres undefined) + CNC(C)C(=O)NC1CN(S(=O)(=O)c2cccc(S(=O)(=O)N3CCC4CCC(C(=O)NC(c5ccccc5)c5ccccc5)N4C(=O)C(NC(=O)C(C)NC)C3)c2)CCC2CCC(C(=O)NC(c3ccccc3)c3ccccc3)N2C1=O
Marked response: F

Exam item: Is viability, T/C strictly under 60% for the entry C=C(F)C(=O)N1CCN(c2nc(OCC3CCCN3C)nc3c2CCN(c2cccc4cccc(Cl)c24)C3)CC1CC#N (centres undefined) + CNC(C)C(=O)NC1CN(S(=O)(=O)c2cccc(S(=O)(=O)N3CCC4CCC(C(=O)NC(c5ccccc5)c5ccccc5)N4C(=O)C(NC(=O)C(C)NC)C3)c2)CCC2CCC(C(=O)NC(c3ccccc3)c3ccccc3)N2C1=O ?
Marked response: F

Exam item: Check if viability, T/C falls below 60% for CCN1CCN(Cc2ccc(Nc3ncc(F)c(-c4cc(F)c5nc(C)n(C(C)C)c5c4)n3)nc2)CC1 + CNC(C)C(=O)NC1CN(S(=O)(=O)c2cccc(S(=O)(=O)N3CCC4CCC(C(=O)NC(c5ccccc5)c5ccccc5)N4C(=O)C(NC(=O)C(C)NC)C3)c2)CCC2CCC(C(=O)NC(c3ccccc3)c3ccccc3)N2C1=O .
Marked response: F

Exam item: hey, is viability, T/C for Cn1ncnc1[C@H]1c2n[nH]c(=O)c3cc(F)cc(c23)N[C@@H]1c1ccc(F)cc1 + CNC(C)C(=O)NC1CN(S(=O)(=O)c2cccc(S(=O)(=O)N3CCC4CCC(C(=O)NC(c5ccccc5)c5ccccc5)N4C(=O)C(NC(=O)C(C)NC)C3)c2)CCC2CCC(C(=O)NC(c3ccccc3)c3ccccc3)N2C1=O lower than 60% or not?
Marked response: F

* * *

# System: 521955-158-R2-J5-PDC complex spheroid growth, % test/control
# assay_details: Anticancer human tumor 521955-158-R2-J5-PDC cell line growth inhibition [Asc];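 note: spheroids exposed to agents for 7 days before readout; 100% = DMSO vehicle control viability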
# conditions_used: second compound 3.16 µM; first compound 0.00316 µM; active compounds read low
outcome_measure: viability, T/C

# compound, outcome_measure, reported_measurement
rows = [
    ("CNC(C)C(=O)NC1CN(S(=O)(=O)c2cccc(S(=O)(=O)N3CCC4CCC(C(=O)NC(c5ccccc5)c5ccccc5)N4C(=O)C(NC(=O)C(C)NC)C3)c2)CCC2CCC(C(=O)NC(c3ccccc3)c3ccccc3)N2C1=O (configuration not stated) + Cc1c(S(C)(=O)=O)c(-c2cc(F)cc(N3CCN(c4ccc(NS(=O)(=O)c5ccc(NC(CCN6CCC(C(=O)OCCCP(=O)(O)O)CC6)CSc6ccccc6)c(S(=O)(=O)C(F)(F)F)c5)cc4)CC3)c2)c(-c2ccc(Cl)cc2)n1C(C)C", "viability, T/C", "97.7%"),
]

Exam item: Observed viability, T/C on 521955-158-R2-J5-PDC complex spheroid growth, % test/control for COc1c(OCCCN2CCOCC2)ccc2c3n(c(=NC(=O)c4cnc(N)nc4)nc12)CCN3 + Cc1c(S(C)(=O)=O)c(-c2cc(F)cc(N3CCN(c4ccc(NS(=O)(=O)c5ccc(NC(CCN6CCC(C(=O)OCCCP(=O)(O)O)CC6)CSc6ccccc6)c(S(=O)(=O)C(F)(F)F)c5)cc4)CC3)c2)c(-c2ccc(Cl)cc2)n1C(C)C , please.
Marked response: 45.4%
